Origin of values: patent US20240190999A1

biological target: human 4-1BB on transfected HT1080 NF-kB-luciferase reporter cells (human, UniProt Q07011 24-255); experiment: cell-based or functional assay
Sequence (Q07011 24-255 limits assumed): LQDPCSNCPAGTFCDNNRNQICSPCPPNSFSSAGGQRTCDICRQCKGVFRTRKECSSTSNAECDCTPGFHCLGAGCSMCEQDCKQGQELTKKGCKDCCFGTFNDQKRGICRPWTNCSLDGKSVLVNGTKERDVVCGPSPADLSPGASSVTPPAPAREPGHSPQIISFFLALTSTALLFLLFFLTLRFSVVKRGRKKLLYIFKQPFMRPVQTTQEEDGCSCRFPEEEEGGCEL
quantity_kind: EC50, 4-1BB activation in HT1080 reporter cells in presence of FAP-beads (nM)
Write the value in nM as a bare number.

Read the entry bispecific construct #49 (designed binder, 56 is used; also called FAP-4-1BB bispecific construct #49) MRGSHHHHHHGSDLGEKLLVAALYGQDDEVRILLAAGADVNAKDQWGLTPLHKAALQGHLEIVEVLLKAGADVNAKDERGHTPLHWAARFGHLEIVEVLLKAGADVNAQDQKGYTPADLAALWGHEDIAEVLQKAAGSPTPTPTTPTPTPTTPTPTPTGSDLGKKLLVAANVGQDDEVRILLAAGADVNAKDYHGYTPLHHAATYGHLEIVEVLLKAGADVNAKDQTGLTPLHLAAAKGHLEIVEVLLKAGADVNAQDHHGYTPADLAAFVGHEDIAVVLQKLN and write its reported EC50, 4-1BB activation in HT1080 reporter cells in presence of FAP-beads.
6.52

Read the entry bispecific construct #48 (designed binder, 56 is used; also called FAP-4-1BB bispecific construct #48) MRGSHHHHHHGSDLGEKLLVAALYGQDDEVRILLAAGADVNAKDQWGLTPLHKAALQGHLEIVEVLLKAGADVNAKDERGHTPLHWAARFGHLEIVEVLLKAGADVNAQDQKGYTPADLAALWGHEDIAEVLQKAAGSPTPTPTTPTPTPTTPTPTPTGSDLGKKLLEAARAGQDDEVRELLKAGADVNAKDQEHGSTPLHLAANYGHLEIVEVLLKAGADVNAKNWWGNTPLHLAAVYGHLEIVEVLLKAGADVNAKDNHGHTPLHLAAWYGHLEIVEVLLKAGADVNAQDKSGKTPADLAADAGHEDIAEVLQKAA and write its reported EC50, 4-1BB activation in HT1080 reporter cells in presence of FAP-beads.
3.71

Read the entry bispecific construct #46 (designed binder, 56 is used; also called FAP-4-1BB bispecific construct #46) MRGSHHHHHHGSDLGEKLLVAALYGQDDEVRILLAAGADVNAKDQWGLTPLHKAALQGHLEIVEVLLKAGADVNAKDERGHTPLHWAARFGHLEIVEVLLKAGADVNAQDQKGYTPADLAALWGHEDIAEVLQKAAGSPTPTPTTPTPTPTTPTPTPTGSDLGRKLLQAAQLGQDDEVRELLKAGADVNAKDSRGITPLHVAAWQGHLEIVEVLLKASADVNAKDHAGITPLHLAAFLGHLEIVEVLLKAGADVNAQDQEGRTPADLAALQGHEDIAKVLQKLN and write its reported EC50, 4-1BB activation in HT1080 reporter cells in presence of FAP-beads.
5.85

Read the entry bispecific construct #44 (designed binder, also called FAP-4-1BB bispecific construct #44) MRGSHHHHHHGSDLGEKLLVAALYGQDDEVRILLAAGADVNAKDQWGLTPLHKAALQGHLEIVEVLLKAGADVNAKDERGHTPLHWAARFGHLEIVEVLLKAGADVNAQDQKGYTPADLAALWGHEDIAEVLQKAAGSPTPTPTTPTPTPTTPTPTPTGSDLGQKLLKAAQEGQDDEVRELLKAGADVNAKDLRGITPLHVAAWQGHLEIVEVLLKAGADVNAKDSKGETPLHLAAFRGHLEIVEVLLKAGADVNAQDQQGETPADLAALAGHVDIAEVLQKLN and write its reported EC50, 4-1BB activation in HT1080 reporter cells in presence of FAP-beads.
4.59

Read the entry bispecific construct #45 (designed binder, 56 is used; also called FAP-4-1BB bispecific construct #45) MRGSHHHHHHGSDLGEKLLVAALYGQDDEVRILLAAGADVNAKDQWGLTPLHKAALQGHLEIVEVLLKAGADVNAKDERGHTPLHWAARFGHLEIVEVLLKAGADVNAQDQKGYTPADLAALWGHEDIAEVLQKAAGSPTPTPTTPTPTPTTPTPTPTGSDLGDKLLHAAYYGQDDEVRILLAAGADVNAKDTQGLTPLHLAAAIGHLEIVEVLLKAGADVNAKDAYGETPLHLVASRGHLEIVEVLLKAGADVNAQDYSGRTPADLAAEYGHEDIAEVLQKLN and write its reported EC50, 4-1BB activation in HT1080 reporter cells in presence of FAP-beads.
5.15

Read the entry bispecific construct #47 (designed binder, 56 is used; also called FAP-4-1BB bispecific construct #47) MRGSHHHHHHGSDLGEKLLVAALYGQDDEVRILLAAGADVNAKDQWGLTPLHKAALQGHLEIVEVLLKAGADVNAKDERGHTPLHWAARFGHLEIVEVLLKAGADVNAQDQKGYTPADLAALWGHEDIAEVLQKAAGSPTPTPTTPTPTPTTPTPTPTGSDLGKKLLEAARAGQDDEVRELLKAGADVNAKDTYGETPLHLAAWKGHLEIVEVLLKAGADVNAKDSIGITPLHVAAHHGHLEIVEVLLKAGADVNAKDKWGRTPLHLAALLGHLEIAEVLLKAGADVNAQDKSGKTPADLAADAGHDDIAEVLQKLN and write its reported EC50, 4-1BB activation in HT1080 reporter cells in presence of FAP-beads.
6.19
